TEST SUMMARY: Plasma pharmacokinetics after 1 mg/kg PO in female mice
CONDITION SUMMARY: mouse, T1/2—range*, Table 4, PO 1 mg/kg, female mice
ENDPOINT NAME: half-life

Prompt: If you can, please state the reported half-life value of Cn1nc(C(F)(F)F)cc1-c1c(F)cc(OCc2ccc(Cl)cc2)c(-c2ccc(Cl)c(C(F)(F)F)c2)c1O .
Completion: 8 to 24 h

====

Property: fold induction at 10 µM; scope: individual compounds
Test system: ATF4
TEST SUMMARY: ATF4 protein level in PC3 cells by western blot, 24 hr
Type: cell-based
CONDITION SUMMARY: Homo sapiens, PC-3, PC3, 24 h, Actin control, read-out: Relative ATF4 protein at 10 μM (fold change, PC3 24 h)
Field format: numeric only.

Cc1ncsc1-c1ccc(CNC(=O)[C@@H]2C[C@@H](O)CN2C(=O)[C@@H](NC(=O)CCCCCCCCCCNC(=O)CCOCCCN(C(=O)c2ccc(Cl)c(C(F)(F)F)c2)c2ccc(-c3cc(C(F)(F)F)nn3C)c(O)c2)C(C)(C)C)cc1 :: 10.2

Prompt: Using the record for Cc1ncsc1-c1ccc(CNC(=O)[C@@H]2C[C@@H](O)CN2C(=O)[C@@H](NCCOCCNC(=O)CCOCCCOc2ccc(-c3cc(C(F)(F)F)nn3C)c(O)c2-c2ccc(Cl)c(C(F)(F)F)c2)C(C)(C)C)cc1 , report its fold induction at 10 µM.
Completion: 1.6
